Data origin: patent US20150087627A1

Molecular target: PI3K α (p110α/p85α) (Homo sapiens)
Construct: purchased Upstate / Millipore Corporation
Assay: PI 3-Kinase (human) HTRF assay, PI3K α
Format: biochemical
Conditions: read-out: PI3K α IC50
pIC50: −log10 of the molar value.
Recorded pIC50 values for a group of compounds are listed next.

compound: COCCN1CCN(c2cnc3ccc(-c4ccc5oc(N)nc5c4)cc3n2)CC1 [Compound 387]
pIC50: > 7.00
//
compound: NC(=O)[C@@H]1CCCN1C(=O)c1cnc2ccc(-c3ccc4oc(N)nc4c3)cn12 [Compound 259]
pIC50: > 6.00
//
compound: O=C(c1cnc2ccc(-c3cncc(NS(=O)(=O)c4ccc(F)cc4F)c3)cn12)N1CCOCC1 [Compound 425]
pIC50: > 7.00

(Q) Which value of pIC50 has been reported for Cc1ncc(-c2ccc3ncc(C(=O)N4C5CCC4COC5)n3c2)c2cn[nH]c12 [Compound 538] in the records?
(A) > 7.00

(Q) Which value of pIC50 has been reported for C[C@@H](N)C(=O)N1CCN(c2cnc3ccc(-c4ccc5oc(N)nc5c4)cc3n2)CC1 [Compound 208] in the records?
(A) > 7.00

(Q) Which value of pIC50 has been reported for Nc1nc2cc(-c3cc(F)c4oc(N)nc4c3)ccc2o1 [Compound 432] in the records?
(A) > 5.00

(Q) Which value of pIC50 has been reported for CN(C)CCn1cnc2ccc(-c3ccc4oc(N)nc4c3)cc2c1=O [Compound 292] in the records?
(A) > 5.00

(Q) Which value of pIC50 has been reported for NCC(=O)N1CCN(c2cnc3ccc(-c4ccc5oc(N)nc5c4)cc3n2)CC1 [Compound 192] in the records?
(A) > 7.00

---

Molecular target: PI3K β (p110β/p85α) (Homo sapiens, UniProt P42338)
Construct: purchased Upstate / Millipore Corporation
Sequence (P42338 whole entry): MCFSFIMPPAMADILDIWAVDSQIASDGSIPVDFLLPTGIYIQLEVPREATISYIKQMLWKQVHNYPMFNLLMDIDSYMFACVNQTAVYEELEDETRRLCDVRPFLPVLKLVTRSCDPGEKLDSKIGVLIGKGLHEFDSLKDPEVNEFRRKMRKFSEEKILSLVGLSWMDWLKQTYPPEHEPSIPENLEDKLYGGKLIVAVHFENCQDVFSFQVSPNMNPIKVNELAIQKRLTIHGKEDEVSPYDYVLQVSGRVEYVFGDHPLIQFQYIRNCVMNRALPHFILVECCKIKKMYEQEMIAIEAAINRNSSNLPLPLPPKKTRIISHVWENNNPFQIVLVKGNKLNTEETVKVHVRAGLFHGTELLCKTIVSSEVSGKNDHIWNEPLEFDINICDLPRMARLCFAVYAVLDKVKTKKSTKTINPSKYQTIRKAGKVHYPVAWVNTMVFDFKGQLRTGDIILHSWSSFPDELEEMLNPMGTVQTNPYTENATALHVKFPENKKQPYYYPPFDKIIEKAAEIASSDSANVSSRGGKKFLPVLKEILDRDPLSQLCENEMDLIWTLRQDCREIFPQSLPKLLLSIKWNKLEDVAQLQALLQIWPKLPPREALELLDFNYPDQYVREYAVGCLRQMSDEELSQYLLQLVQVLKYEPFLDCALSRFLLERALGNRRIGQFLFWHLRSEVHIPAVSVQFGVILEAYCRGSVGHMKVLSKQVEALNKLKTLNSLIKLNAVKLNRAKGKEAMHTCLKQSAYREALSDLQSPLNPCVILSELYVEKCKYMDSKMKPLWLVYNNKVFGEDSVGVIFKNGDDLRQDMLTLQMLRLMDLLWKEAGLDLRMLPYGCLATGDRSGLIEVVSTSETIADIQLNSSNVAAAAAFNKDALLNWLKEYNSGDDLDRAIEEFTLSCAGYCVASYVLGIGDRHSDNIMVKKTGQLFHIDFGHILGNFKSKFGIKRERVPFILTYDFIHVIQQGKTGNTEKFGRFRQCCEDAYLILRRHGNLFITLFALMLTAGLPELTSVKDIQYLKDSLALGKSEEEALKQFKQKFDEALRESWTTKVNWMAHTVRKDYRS
Sequence (P27986 whole entry partner): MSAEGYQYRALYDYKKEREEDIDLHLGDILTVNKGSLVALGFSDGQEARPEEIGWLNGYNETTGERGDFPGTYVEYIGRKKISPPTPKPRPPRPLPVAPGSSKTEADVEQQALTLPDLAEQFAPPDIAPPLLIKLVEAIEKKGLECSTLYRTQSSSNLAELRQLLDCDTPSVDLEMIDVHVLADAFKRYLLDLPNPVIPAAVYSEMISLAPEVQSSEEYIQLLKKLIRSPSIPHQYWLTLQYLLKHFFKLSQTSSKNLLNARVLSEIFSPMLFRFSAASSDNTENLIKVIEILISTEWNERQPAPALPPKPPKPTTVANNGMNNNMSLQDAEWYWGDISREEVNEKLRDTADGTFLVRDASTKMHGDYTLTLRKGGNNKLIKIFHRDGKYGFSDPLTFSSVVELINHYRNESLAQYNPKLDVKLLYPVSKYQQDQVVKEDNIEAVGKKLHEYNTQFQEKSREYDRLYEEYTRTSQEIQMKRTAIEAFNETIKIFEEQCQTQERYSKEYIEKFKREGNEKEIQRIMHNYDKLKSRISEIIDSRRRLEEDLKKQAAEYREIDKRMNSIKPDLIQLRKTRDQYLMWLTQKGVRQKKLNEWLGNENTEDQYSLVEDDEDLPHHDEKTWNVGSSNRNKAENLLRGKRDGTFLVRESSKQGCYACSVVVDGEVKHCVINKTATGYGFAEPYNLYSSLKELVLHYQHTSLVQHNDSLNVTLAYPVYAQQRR
Assay: PI 3-Kinase (human) HTRF assay, PI3K β
Type: biochemical
Settings: read-out: PI3K β IC50
Recorded IC50 values for a group of compounds are listed next.

Use these answered entries as a reference point.
molecule smiles: CN1CCN([C@@H]2CCN(c3cnc4ccc(-c5ccc6oc(N)nc6c5)cc4n3)C2)CC1
target or test system: PI3K β (p110β/p85α) (Homo sapiens, UniProt P42338)
result type: IC50
result: < 1 µM
--
molecule smiles: Nc1nc2cc(-c3ccc4ncc(C(=O)N5CCOCC5)cc4c3)ccc2o1
target or test system: PI3K β (p110β/p85α) (Homo sapiens, UniProt P42338)
result type: IC50
result: > 10 µM
--
molecule smiles: Cc1ccc(-c2cnc3ccc(-c4ccc5oc(N)nc5c4)cc3n2)cn1
target or test system: PI3K β (p110β/p85α) (Homo sapiens, UniProt P42338)
result type: IC50
result: > 10 µM

Read the next record carefully.
(Q) Which value of IC50 has been reported for O=C(c1cnc2ccc(-c3ccc4c(Nc5ccccc5)noc4c3)cn12)N1CCOCC1 in the records?
(A) > 10 µM

---

Recorded pIC50 values for a group of molecules are listed next.
Biological target: PI3K γ (p110γ) (Homo sapiens)
Construct: purchased Upstate / Millipore Corporation
Sequence (P48736 whole entry): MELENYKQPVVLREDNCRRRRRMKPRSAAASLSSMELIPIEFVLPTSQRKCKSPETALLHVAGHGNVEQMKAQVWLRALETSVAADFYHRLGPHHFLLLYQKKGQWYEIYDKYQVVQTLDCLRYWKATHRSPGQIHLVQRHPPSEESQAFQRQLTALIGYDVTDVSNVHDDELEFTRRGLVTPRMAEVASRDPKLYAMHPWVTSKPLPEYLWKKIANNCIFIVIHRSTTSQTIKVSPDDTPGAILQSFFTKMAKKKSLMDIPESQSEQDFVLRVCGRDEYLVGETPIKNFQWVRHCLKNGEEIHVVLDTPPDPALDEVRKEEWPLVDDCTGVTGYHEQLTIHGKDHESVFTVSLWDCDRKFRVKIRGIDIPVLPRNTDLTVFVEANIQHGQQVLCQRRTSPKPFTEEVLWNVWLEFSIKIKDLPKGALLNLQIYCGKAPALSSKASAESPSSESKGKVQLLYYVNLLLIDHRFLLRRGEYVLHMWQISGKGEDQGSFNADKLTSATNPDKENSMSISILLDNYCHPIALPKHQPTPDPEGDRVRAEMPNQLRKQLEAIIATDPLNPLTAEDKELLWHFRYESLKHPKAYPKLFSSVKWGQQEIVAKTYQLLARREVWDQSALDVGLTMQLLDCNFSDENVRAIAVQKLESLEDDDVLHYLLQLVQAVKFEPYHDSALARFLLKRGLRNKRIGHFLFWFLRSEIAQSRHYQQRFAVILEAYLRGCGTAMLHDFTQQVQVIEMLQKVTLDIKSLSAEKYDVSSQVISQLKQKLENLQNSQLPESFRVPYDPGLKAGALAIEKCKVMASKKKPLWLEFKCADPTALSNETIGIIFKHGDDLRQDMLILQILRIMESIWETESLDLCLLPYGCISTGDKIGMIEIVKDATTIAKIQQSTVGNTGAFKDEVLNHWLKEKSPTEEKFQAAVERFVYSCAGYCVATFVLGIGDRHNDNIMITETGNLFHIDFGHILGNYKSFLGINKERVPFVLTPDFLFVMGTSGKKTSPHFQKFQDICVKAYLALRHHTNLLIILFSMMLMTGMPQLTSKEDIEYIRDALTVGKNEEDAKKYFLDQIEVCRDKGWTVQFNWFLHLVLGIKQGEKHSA
Experiment: PI 3-Kinase (human) HTRF assay, PI3K γ
Assay type: biochemical
Details: read-out: PI3K γ IC50
pIC50: −log10 of the molar value.

(Q) Which value of pIC50 has been reported for Nc1nc2cc(-c3ccc4ncc(C(=O)N5CCCCC5)n4c3)ccc2o1 in the records?
(A) > 5.00

(Q) Which value of pIC50 has been reported for Nc1nc2cc(-c3ccc4ncc(N5CC(n6ccnc6)C5)nc4c3)ccc2o1 in the records?
(A) > 6.00

(Q) Which value of pIC50 has been reported for CC(=O)Nc1nc2cc(-c3ccc4nc(N)oc4c3)ccc2s1 in the records?
(A) > 7.00

(Q) Which value of pIC50 has been reported for Nc1nc2cc(-c3cc4nccc(-c5ccncc5)c4s3)ccc2o1 in the records?
(A) > 5.00

(Q) Which value of pIC50 has been reported for Nc1nc2cc(-c3ccc4ncc(-c5ccc(N6CCOCC6)nc5)nc4c3)ccc2o1 in the records?
(A) < 5.00

---

Target: PI3K α (p110α/p85α) (Homo sapiens)
Construct: purchased Upstate / Millipore Corporation
Test: PI 3-Kinase (human) HTRF assay, PI3K α
Assay type: biochemical
Details: read-out: PI3K α IC50
Recorded IC50 values for a group of compounds are listed next.

molecule smiles: Nc1nc2cc(-c3ccc4ncc(C(=O)NCCOCC(=O)O)n4c3)ccc2o1
target or test system: PI3K α (p110α/p85α) (Homo sapiens)
IC50: < 0.1 µM

molecule smiles: CN1CCN(c2cnc3ccc(-c4ccc5oc(N)nc5c4)cc3n2)C(=O)C1
target or test system: PI3K α (p110α/p85α) (Homo sapiens)
IC50: < 10 µM

molecule smiles: CC(C)N1CCC(n2cnc3ccc(-c4cncc(NS(C)(=O)=O)c4)cc3c2=O)CC1
target or test system: PI3K α (p110α/p85α) (Homo sapiens)
IC50: > 10 µM

Read the next record carefully.
(Q) Query for PI3K α (p110α/p85α) (Homo sapiens): what IC50 does the record show for Nc1nc2cc(-c3ccc4ncn(CCN5CCOCC5)c(=O)c4c3)ccc2o1 ?
(A) < 1 µM

---

Recorded IC50 values for a group of compounds are listed next.
Biological target: PI3K β (p110β/p85α) (Homo sapiens, UniProt P42338)
Construct: purchased Upstate / Millipore Corporation
Test: PI 3-Kinase (human) HTRF assay, PI3K β
Format: biochemical
Conditions: read-out: PI3K β IC50

Use these answered entries as a reference point.
molecule smiles: NC(=O)[C@H]1CCCN1C(=O)c1cnc2ccc(-c3ccc4oc(N)nc4c3)cn12
IC50: > 10 µM
//
molecule smiles: Nc1nc2cc(-c3cc(F)c4oc(N)nc4c3)ccc2o1
IC50: < 1 µM
//
molecule smiles: C[C@@H]1CN(C2CN(C(=O)c3cnc4ccc(-c5ccc6oc(N)nc6c5)cn34)C2)CCN1C
IC50: < 10 µM
//
molecule smiles: Nc1nc2cc(-c3ccc4ncc(C(=O)N5CC(N6CC[C@@H](O)C6)C5)n4c3)ccc2o1
IC50: < 10 µM
//
molecule smiles: Cc1ncccc1-c1cnc2ccc(-c3ccc4oc(N)nc4c3)cc2n1
IC50: > 10 µM

(Q) Which value of IC50 has been reported for C[C@H]1CN(C(=O)C2CN(c3cnc4ccc(-c5ccc6oc(N)nc6c5)cc4n3)C2)CCN1 in the records?
(A) < 10 µM

(Q) Which value of IC50 has been reported for Cc1c(-c2ccc3oc(N)nc3c2)ccc2ncc(N3CCN[C@@H](C)C3)nc12 in the records?
(A) < 0.1 µM

(Q) Which value of IC50 has been reported for Nc1nc2cc(-c3ccc4ncc(N5CCNCC5)nc4c3)ccc2o1 in the records?
(A) < 0.1 µM

---

Recorded pIC50 values for a group of molecules are listed next.
Target: PI3K α (p110α/p85α) (Homo sapiens, UniProt P42336)
Construct: purchased Upstate / Millipore Corporation
Sequence (P42336 whole entry, one chain of several): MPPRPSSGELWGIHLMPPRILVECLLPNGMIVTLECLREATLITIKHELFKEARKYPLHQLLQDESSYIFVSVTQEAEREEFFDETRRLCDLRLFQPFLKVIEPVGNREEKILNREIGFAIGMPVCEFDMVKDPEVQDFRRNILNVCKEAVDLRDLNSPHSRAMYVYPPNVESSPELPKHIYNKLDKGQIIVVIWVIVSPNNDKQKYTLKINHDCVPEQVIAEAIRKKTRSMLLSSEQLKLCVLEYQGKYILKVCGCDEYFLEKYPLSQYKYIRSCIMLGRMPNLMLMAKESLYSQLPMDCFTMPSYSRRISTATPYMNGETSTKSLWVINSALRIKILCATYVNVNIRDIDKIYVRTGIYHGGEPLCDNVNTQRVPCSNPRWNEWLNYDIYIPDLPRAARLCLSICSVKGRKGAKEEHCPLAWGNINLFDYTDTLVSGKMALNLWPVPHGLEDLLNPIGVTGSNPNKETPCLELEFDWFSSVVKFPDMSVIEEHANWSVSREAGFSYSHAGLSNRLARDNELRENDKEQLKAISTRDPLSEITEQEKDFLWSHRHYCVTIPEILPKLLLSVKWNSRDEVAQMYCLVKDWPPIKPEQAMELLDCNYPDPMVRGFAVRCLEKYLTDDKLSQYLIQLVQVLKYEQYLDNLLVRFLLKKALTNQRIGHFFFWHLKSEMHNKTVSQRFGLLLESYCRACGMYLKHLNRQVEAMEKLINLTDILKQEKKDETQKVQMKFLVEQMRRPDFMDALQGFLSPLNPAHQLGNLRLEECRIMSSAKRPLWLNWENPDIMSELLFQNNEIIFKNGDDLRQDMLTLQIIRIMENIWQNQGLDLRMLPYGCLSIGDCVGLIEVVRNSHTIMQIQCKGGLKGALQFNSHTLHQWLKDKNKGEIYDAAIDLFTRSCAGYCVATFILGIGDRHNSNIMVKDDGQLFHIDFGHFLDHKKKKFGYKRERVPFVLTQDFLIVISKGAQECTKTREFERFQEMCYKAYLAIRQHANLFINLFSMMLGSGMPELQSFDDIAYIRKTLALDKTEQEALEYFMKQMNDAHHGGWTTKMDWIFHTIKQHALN
Assay: PI 3-Kinase (human) HTRF assay, PI3K α
Assay type: biochemical
Conditions: Table 4 (PI3K α inhibitors); read-out: PI3K α IC50
pIC50: −log10 of the molar value.

Use these answered entries as a reference point.
molecule: C[C@H]1CN(c2cnc3ccc(-c4ccc5oc(N)nc5c4)nc3n2)CCN1 [Compound 552]
result: > 6.00
//
molecule: Nc1nc2cc(-c3ccc4ncc(-c5cccnc5)nc4n3)ccc2o1 [Compound 554]
result: > 6.00
//
molecule: Nc1nc2cc(-c3ccc4ncc(N5CC(N6CCN(CC7CC7)CC6)C5)cc4n3)ccc2o1 [Compound 611]
result: > 7.00
//
molecule: CCOC(=O)N1CCN(c2cnc3ccc(-c4ccc5oc(N)nc5c4)nc3n2)CC1 [Compound 557]
result: > 7.00
//
molecule: CS(=O)(=O)N1CCN(C2CN(c3cnc4ccc(-c5ccc6oc(N)nc6c5)nc4n3)C2)CC1 [Compound 559]
result: > 7.00
//
molecule: Nc1nc2cc(-c3ccc4ncc(N5CCOCC5)cc4n3)ccc2o1 [Compound 573]
result: > 7.00

(Q) Which value of pIC50 has been reported for Nc1nc2cc(-c3ccc4ncc(N5CCN(C(=O)C6(N)CC6)CC5)nc4n3)ccc2o1 [Compound 592] in the records?
(A) > 7.00

(Q) Which value of pIC50 has been reported for Nc1nc2cc(-c3ccc4ncc(N5CC(N6CCOCC6)C5)nc4n3)ccc2o1 [Compound 556] in the records?
(A) > 7.00

---

Molecular target: PI3K δ (Homo sapiens)
Construct: purchased Upstate / Millipore Corporation
Sequence (O00329 whole entry): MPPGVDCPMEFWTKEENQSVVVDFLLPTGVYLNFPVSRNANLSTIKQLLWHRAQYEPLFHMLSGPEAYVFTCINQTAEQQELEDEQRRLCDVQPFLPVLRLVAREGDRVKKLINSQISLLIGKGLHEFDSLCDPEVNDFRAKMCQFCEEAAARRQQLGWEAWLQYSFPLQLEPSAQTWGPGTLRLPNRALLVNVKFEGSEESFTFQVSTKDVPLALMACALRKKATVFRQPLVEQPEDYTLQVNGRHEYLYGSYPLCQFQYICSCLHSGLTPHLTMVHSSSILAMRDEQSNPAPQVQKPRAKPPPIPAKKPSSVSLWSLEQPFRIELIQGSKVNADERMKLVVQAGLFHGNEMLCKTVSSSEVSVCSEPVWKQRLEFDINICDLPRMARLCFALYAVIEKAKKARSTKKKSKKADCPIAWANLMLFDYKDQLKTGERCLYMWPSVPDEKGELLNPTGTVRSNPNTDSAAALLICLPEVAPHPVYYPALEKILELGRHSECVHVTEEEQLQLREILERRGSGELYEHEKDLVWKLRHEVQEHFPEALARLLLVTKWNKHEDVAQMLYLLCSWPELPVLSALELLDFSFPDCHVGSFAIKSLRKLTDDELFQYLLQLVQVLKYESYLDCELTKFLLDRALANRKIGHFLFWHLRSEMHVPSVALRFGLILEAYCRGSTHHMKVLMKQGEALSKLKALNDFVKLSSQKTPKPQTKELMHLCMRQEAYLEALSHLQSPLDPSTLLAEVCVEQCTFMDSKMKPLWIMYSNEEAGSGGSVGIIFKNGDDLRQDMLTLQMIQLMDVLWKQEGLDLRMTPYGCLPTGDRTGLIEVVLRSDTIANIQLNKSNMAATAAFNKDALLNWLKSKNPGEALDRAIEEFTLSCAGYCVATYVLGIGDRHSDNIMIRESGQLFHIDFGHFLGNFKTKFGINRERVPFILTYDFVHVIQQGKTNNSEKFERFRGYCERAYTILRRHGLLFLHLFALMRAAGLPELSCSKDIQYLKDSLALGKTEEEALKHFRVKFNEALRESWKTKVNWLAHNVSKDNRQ
Sequence (P27986 whole entry partner): as the sequence (P27986 whole entry partner) above
Test: PI 3-Kinase (human) HTRF assay, PI3K δ
Assay type: biochemical
Conditions: read-out: PI3K δ IC50
result type: IC50

compound: N#Cc1cnc2ccc(-c3ccc4oc(N)nc4c3)cc2c1-c1ccncc1 [Compound 46]
result: < 0.1 µM
--
compound: CC(C)N1CCN(c2cnc3ccc(-c4ccc5oc(N)nc5c4)cc3n2)C(=O)C1 [Compound 392]
result: > 10 µM
--
compound: CC(=O)Nc1nc2ccc(-c3ccc4nc(N)oc4c3)cc2s1 [Compound 242]
result: > 10 µM
--
compound: Nc1nc2cc(-c3ccc4nc(N)c(N5CC(N6CCOCC6)C5)nc4c3)ccc2o1 [Compound 404]
result: > 10 µM

(Q) Which value of IC50 has been reported for O=C(c1cnc2ccc(-c3ccc4oc(NC5CC5)nc4c3)cn12)N1CCOCC1 [Compound 409] in the records?
(A) > 10 µM

(Q) Which value of IC50 has been reported for CNc1nc2cc(-c3ccc4ncc(C(=O)N5CCOCC5)n4c3)ccc2o1 [Compound 406] in the records?
(A) > 10 µM

(Q) Which value of IC50 has been reported for COCCN1CCN(c2cnc3ccc(-c4ccc5oc(N)nc5c4)cc3n2)CC1 [Compound 387] in the records?
(A) > 10 µM

(Q) Which value of IC50 has been reported for CNC(=O)CN1CCN(c2cnc3ccc(-c4ccc5oc(N)nc5c4)cc3n2)CC1 [Compound 120] in the records?
(A) < 10 µM
